Listed sequences paired with reported Max. Frequency of CD4+ TNFαINFγ DP
- Test system: CD8+ and CD4+ T cells (autologous CD3+ Pan-T cells isolated from human normal PBMCs)
- test-name: Exogenous autologous normal donor restimulation assay (15-mer overlapping peptide pools on CD1c+ dendritic cells, TNFα/IFNγ flow cytometry)
- Format: cell-based
- condition-notes: Table 28; additional neoantigens; 15-mer overlapping peptide pool; highest across normal donors

{"ordered-residues": "ENSGNASRWLHVPSSSDDWLGWKKSSAITSNS (listed as Homo sapiens) [AS50, LRIF1 alternative splicing]", "tested-target": "CD8+ and CD4+ T cells (autologous CD3+ Pan-T cells isolated from human normal PBMCs)", "Max. Frequency of CD4+ TNFαINFγ DP": 0.07}
{"ordered-residues": "FARKMLEKVHRQHLQLSHNSQE (listed as Homo sapiens) [AS12, EVPL alternative splicing]", "tested-target": "CD8+ and CD4+ T cells (autologous CD3+ Pan-T cells isolated from human normal PBMCs)", "Max. Frequency of CD4+ TNFαINFγ DP": 0.28}
{"ordered-residues": "VETLENANSFSSGIQPLLCSLIGLENPT (listed as Homo sapiens) [AS58, CREB3L1 alternative splicing]", "tested-target": "CD8+ and CD4+ T cells (autologous CD3+ Pan-T cells isolated from human normal PBMCs)", "Max. Frequency of CD4+ TNFαINFγ DP": 0.24}
{"ordered-residues": "PVPTATPGVRSVTSPQGLGLFLKFI (listed as Homo sapiens) [AS9, CACNA1D alternative splicing]", "tested-target": "CD8+ and CD4+ T cells (autologous CD3+ Pan-T cells isolated from human normal PBMCs)", "Max. Frequency of CD4+ TNFαINFγ DP": 0.16}
{"ordered-residues": "DLRRVATYCAPLPSSWRPGTGTTIPPRMRSC (listed as Homo sapiens) [FUS23, NUDT14->JAG2 gene fusion]", "tested-target": "CD8+ and CD4+ T cells (autologous CD3+ Pan-T cells isolated from human normal PBMCs)", "Max. Frequency of CD4+ TNFαINFγ DP": 0.12}
{"ordered-residues": "GEVELSEGGEGQRHLAFPWACSGPGWRGVCCAAVEPA (listed as Homo sapiens) [AS32, TONSL alternative splicing]", "tested-target": "CD8+ and CD4+ T cells (autologous CD3+ Pan-T cells isolated from human normal PBMCs)", "Max. Frequency of CD4+ TNFαINFγ DP": 0.08}
{"ordered-residues": "PEPRRLSPGEPRGRPRKGWGIWGLCGARVGPKAWR (listed as Homo sapiens) [AS42, SLC39A4 alternative splicing]", "tested-target": "CD8+ and CD4+ T cells (autologous CD3+ Pan-T cells isolated from human normal PBMCs)", "Max. Frequency of CD4+ TNFαINFγ DP": 0.59}

###

Listed substances paired with reported Exchange rate with allele specific Pos peptide, HLA-A*02:01
- tested-target: HLA-A*02:01 (Homo sapiens, UniProt P04439, D140Y/D185E/D98H/E176V/E277Q/G131W/G231S/I119V/I121R/I166T/I218V/L300P/L318F/N151K/N90K/P208A/P217A/Q86G/Q94H/R138H/R169H/T345S)
- test-name: In vitro binding of neoantigens to class I MHC (UV peptide exchange, HLA class I ELISA)
- condition-notes: 100% = same binding as positive control peptide
property-measured: Exchange rate with allele specific Pos peptide, HLA-A*02:01 (%)

{"substance": "P58 (MMAEIISVHVPKILSGK; listed as Homo sapiens) [Peptide P58]", "quantitative-readout": 11.8}
{"substance": "SLYHREKQLIAMDSAI (listed as Homo sapiens) [Neoantigen P22]", "quantitative-readout": 46.9}
{"substance": "P76 (YCMAAPMGL) [Peptide P76]", "quantitative-readout": 85.9}
{"substance": "P97 (GYLRMQGLMAQRLLLR; listed as Homo sapiens) [Peptide P97]", "quantitative-readout": 4.6}
{"substance": "P61 (MFENGCYLGRQKRFKCE; listed as Homo sapiens) [Peptide P61]", "quantitative-readout": 5.8}

Reference source: patent US12295997B2
